The measured values listed here are drawn from patent US20070060521A1.

Target: GST-Stat3 fusion protein (full-length STAT3 fused to bacterial glutathione S-transferase)
Sequence (P40763 whole entry, the tested form may be a part): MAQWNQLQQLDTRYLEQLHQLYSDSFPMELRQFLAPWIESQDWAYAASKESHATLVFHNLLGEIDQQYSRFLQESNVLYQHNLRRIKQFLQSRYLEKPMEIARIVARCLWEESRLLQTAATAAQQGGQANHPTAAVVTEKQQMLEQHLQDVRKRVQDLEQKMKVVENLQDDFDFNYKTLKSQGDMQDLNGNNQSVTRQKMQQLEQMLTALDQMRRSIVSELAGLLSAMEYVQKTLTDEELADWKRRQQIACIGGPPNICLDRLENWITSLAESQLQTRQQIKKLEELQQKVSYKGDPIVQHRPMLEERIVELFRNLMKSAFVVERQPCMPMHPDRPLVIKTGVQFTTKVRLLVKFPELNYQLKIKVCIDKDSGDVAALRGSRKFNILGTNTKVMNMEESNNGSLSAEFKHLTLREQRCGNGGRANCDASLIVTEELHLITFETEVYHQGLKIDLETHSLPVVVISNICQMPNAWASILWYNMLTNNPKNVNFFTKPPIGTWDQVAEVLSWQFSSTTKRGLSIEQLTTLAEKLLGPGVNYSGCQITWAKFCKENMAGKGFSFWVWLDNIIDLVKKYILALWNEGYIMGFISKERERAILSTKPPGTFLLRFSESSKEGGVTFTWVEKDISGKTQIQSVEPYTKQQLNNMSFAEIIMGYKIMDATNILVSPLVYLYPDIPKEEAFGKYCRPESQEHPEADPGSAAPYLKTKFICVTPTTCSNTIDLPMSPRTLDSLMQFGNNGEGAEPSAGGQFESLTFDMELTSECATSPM
Test: phage display panning on GST-Stat3, clones sequenced after selection
# Frequency (out of 100 clones) listing for each entry below
The response must be a number in % with no trailing unit.

Past entries and their recorded results:
1. QDVHLTQQSRYTGGGS (peptide, not shown: large carriers) [… (SEQ ID NO:13)]: 13
2. SHPWNAQRELSVGGGS (peptide, not shown: large carriers) [… (SEQ ID NO:14)]: 9
3. FSYPLTRAPLNMGGGS (peptide, not shown: large carriers) [… (SEQ ID NO:16)]: 8

Now turn to the next binder.
### Prompt I am curious: what Frequency (out of 100 clones) value has been reported for YPAPQPLVTKTSGGGS (peptide, not shown: large carriers) [… (SEQ ID NO:15)] ?
### Response 8
